This section lists IC50 readings for Human immunodeficiency virus type 1 integrase (Human immunodeficiency virus 1).
Answers are plain numbers, in µM.

Illustrative cases are given below, each with its answer.
# Chemical smiles, IC50 / µM
measured = [
    ("COc1ccc2c(c1)c(C(=O)/C=C(\\O)C(=O)O)cn2Cc1c(C)cc(C)cc1C", 0.42),
    ("O=C(O)/C(O)=C/C(=O)c1cn(Cc2ccc(C(F)(F)F)cc2)c2ccc(Cl)cc12", 0.26),
    ("O=C(O)/C(O)=C/C(=O)c1cn(Cc2ccc(C(F)(F)F)cc2)c2ccc(F)cc12", 1.55),
    ("COc1ccc2c(c1)c(C(=O)/C=C(\\O)C(=O)O)cn2Cc1cc(C)cc(C)c1", 1.09),
]

Input: Reported IC50 for "Cc1cc(C)c(Cn2cc(C(=O)/C=C(\O)C(=O)O)c3cc(F)ccc32)c(C)c1" : what is it?
Output: 2.51

The reported measurements were obtained from ChEMBL document CHEMBL3232966.
